system: MS2 coat protein; experiment: apparent KD of MS2 coat protein; designed switch direction (-1 OFF switch, 1 ON switch): -1; higher = weaker reporter binding; conditions: input ligand: none
Parameter measured: apparent KD of MS2 coat protein
Express the reported value numerically, then name its unit.

Take a look at these entries with their results.
{"Residues": "UAUUAGCAAGCAAAUGGGUACAUGAGGAUCACCCAUGUGCUCGUCUUAUAAGGUACUGUGACGAAAGUCCCGGUACC [mod--Eli6] (Eterna round: R97, puzzle: Sensor, turn-off variant 1)", "apparent KD of MS2 coat protein": "21.9 nM"}
{"Residues": "AAGUAACAUGAGGAUCACCCAUGUUAGGAUAUCUCGGCCACAGGAACGCUGUAAAGCCAGAGAAGGAGCGGGUG [Mabi] (Eterna round: R97, puzzle: Exclusion 1)", "apparent KD of MS2 coat protein": "127 nM"}
{"Residues": "UAUUUGUCAGGAUAUGAGUCGUAGAACAAUAGUACUACGUCUCAGAAGGGACAUGAGGAUCACCCAUGUGCCUC [Fiskers Ex 4 Super Stable 44 mod 29] (Eterna round: R96, puzzle: Exclusion 4)", "apparent KD of MS2 coat protein": "28.9 nM"}
{"Residues": "CAAACACUGGUCCAAGCACACAUGAGGAUCACCCAUGUCGCCACAUAGGCGCCGGGAAUUAAGCUUCCGUUCGUCUG [Eternabot (L2) Solution 14] (Eterna round: R97, puzzle: Sensor, turn-off variant 1)", "apparent KD of MS2 coat protein": "150 nM"}
{"Residues": "GAGAGCUGAGGAUAUACAUGAGGAUCACCCAUGUACCACCUUGCCGGCACAGAUCCUUGUAGAAGGCGGCUCUA [Eternabot (L2) Solution 57] (Eterna round: R97, puzzle: Exclusion 3)", "apparent KD of MS2 coat protein": "161 nM"}
{"Residues": "ACAUUCUGAGGAUAUGUGCGCACUGACAUGAGGAUCACCCAUGUCCGAAUGUCCGAGACGACAGAAGGCAGUGAAU [Eternabot (L2) Solution 72] (Eterna round: R97, puzzle: Exclusion 5)", "apparent KD of MS2 coat protein": "101 nM"}

Task item: Name the recorded apparent KD of MS2 coat protein for CGUCUGUCGGAAGGAUAUGUAGGGUGUCUUUUCCUCAGUACGAAGUACAUGAGGAUCACCCAUGUACAGAAGGUCCACAAUUAA [Essosoedso] (Eterna round: R96, puzzle: Exclusion NG 2) .
Reply: 75.3 nM

Task item: Requested read-out: apparent KD of MS2 coat protein. Entry: AAUAAGUUAGGAUAUACAUGAGGAUCACCCAUGUCCCACCCGUUACCUAUGACCAUAUGUAGAAGGAGCAAUAA [Exy#2] (Eterna round: R97, puzzle: Exclusion 3)
Reply: 32.7 nM

Task item: Tell me the measured apparent KD of MS2 coat protein of CUUGUGUAAGGAUAUGCCUGGCCGUGAGGCCAGAUUGAAUAGCAGAAGGUACAUGAGGAUCACCCAUGUACGGG [jl-ex4-4.60 ViennaUCT mod] (Eterna round: R97, puzzle: Exclusion 4) , please.
Reply: 376 nM

====

# apparent KD of MS2 coat protein values compiled below
test system: MS2 coat protein; assay: apparent KD of MS2 coat protein; higher = weaker reporter binding; settings: Eterna round: R107; input ligand: arginine 13.2 mM

Here's what some known entries look like.
{"Residues": "AGAUUCGACACGGCCGCCACUUGUGGUGGAUUAUCCAGUGUCGAACAUGAGGAUCACCCAUGUACAAGGACCGGGUGUUGAGUCU [XTryp B #19]", "Endpoint result": "53.3 nM"}
{"Residues": "CUCAUCCACGCGGCCGCCACUAUAUUGUGGUGUGGGUGUGACGUAUUACAUGAGGAUCACCCAUGUAGGACCGGGCGUGGAUGAG [Stork]", "Endpoint result": "188 nM"}
{"Residues": "CAUAUAUAUUGAAGGAGCGUCGAAAAUGGGUAAACAUGAGGAUCACCCAUGUAAAGGGAACGACAGGUAGGUCGCAAUAUAUAUG [AstromonsSSArgB#4]", "Endpoint result": "115 nM"}
{"Residues": "UAUAUAUAUAUUGAUACCAGCAGAGAAAACGUUUAUCCUAACAUGAGGAUCACCCAUGUAUGCCCUUGGCAGCGGUAUAUAUAUA [8.D]", "Endpoint result": "19.7 nM"}
{"Residues": "UUAAUCUUGGUUGAAAACAAUUAAGCAGAAGGAGCGUGAUAAAACACAGGUAGGUCGCUGAAGGGAACAUGAGGAUCACCCAUGU [AstrosSSArgA#14]", "Endpoint result": "25.4 nM"}
{"Residues": "CGGUGUAGGGUUAAUAGGCUGAGUACAGAAGGAGCGCGAAUAAACGCAGGUAGGUCGCUGGCGAACAUGAGGAUCACCCAUGUAU [Same State Arginine A GF 30]", "Endpoint result": "29.5 nM"}
{"Residues": "GUGUGGCGCUCGGCCGCCACUCAGACAUGAGGAUCACCCAUGUAGAACAUGAGGAUCACCCAUGUGAGGACCGGGAGACACACGA [Exclusion Tryptophan B GF11]", "Endpoint result": "164 nM"}
{"Residues": "AUAACAUGAGGAUCACCCAUGUAUUGGUUACGAGGACCGGUACGGCCGCCACUCGUAUUUUGGUGGUAUUUUGUAUAUAUGAUAA [JR_SSTryptoA_Sub018]", "Endpoint result": "26.6 nM"}
{"Residues": "AGUACAUGAGGAUCACCCAUGUAUCGGUACCGAGGACCGGUACGGCCGCCACUCGCAGGACAUGAGGAUCACCCAUGUGCAGCCG [SSTA DOUBLE!!! :-D #10]", "Endpoint result": "19.2 nM"}
{"Residues": "GACGCAUGAGUUGUAAAAGCUCAUGGGUCGCGAGGACCGGUACGGCCGCCACUCGGCUGUACAUGAGGAUCACCCAUGUCAGGGU [#1 Same State - Tryptophan A Attempt #28 (HarryS)]", "Endpoint result": "154 nM"}

Task item: Need apparent KD of MS2 coat protein of GUAAUUAUAAGAAGGAGCGUCGAAAAUGGGUAAACAUGAGGAUCACCCAUGUAAAGGGAACGACAGGUAGGUCGCUUAUGAUUAC [AstromonsSSArgB#22] , thanks.
Reply: 76.5 nM

Task item: # apparent KD of MS2 coat protein lookup, item UGUAUGGACUGAAGGAGCGCCUCAAAAUAGCAUGAGGAACACCCAUGCAAGGCGAAAGCCGGGCAGGUAGGUCGCAGUCCAUACU [ArgBX 3]
Reply: 21 nM
